Numbers sourced from ChEMBL document CHEMBL2203180.

# Assay method text: Induction of nitric oxide release in 0.1 mM phosphate buffer solution at pH 7.4 assessed as nitrate/nitrite level after 80 mins by Griess assay
# Type: physicochemical
# Measurement parameters: pH 7.4, 80 min
Each item that follows carries a reported Activity.
Could you write the number and then its unit?

Use these answered entries as a reference point.
Compound	Activity
COc1cc2c(cc1OCC(=O)OCCO[N+](=O)[O-])C(=O)C(C)OC2 (stereo not drawn)	11.95 µmol/L
COc1ccc2c(c1OCCO[N+](=O)[O-])COC(C)C2=O (stereo not drawn)	7.29 µmol/L

Now consider a different compound.
Q) Identify the reported Activity for the following entry. COc1cc2c(cc1OCCO[N+](=O)[O-])C(=O)C(C)OC2 (stereo not drawn)
A) 6.52 µmol/L
